Values compiled from ChEMBL document CHEMBL3885881.

species on record: Rattus norvegicus; experiment: DrugMatrix - Regimen: Daily Repeat; type: toxicity, organism-based, Sprague-Dawley; parameters: regimen Daily Repeat, gender Male, age 6-8 weeks; conditions: in vivo, po, 0 mg/kg, 120 h, tissue Blood, route oral GAVAGE, dose level Control, time 5 day, vehicle 100 % WATER
MEASURED_ATTRIBUTE: LEUKOCYTE COUNT (x10E3/uL)
Give bare numbers, in x10E3/uL.

In the examples that follow, each entry is paired with its recorded LEUKOCYTE COUNT.
MOLECULE | VALUE_MEASURED
Clc1cccc(Cl)c1N=C1NCCN1 | 17.9
CC(O)CO (stereo not given) | 15.48
CNNCc1ccc(C(=O)NC(C)C)cc1 | 11.32
Cc1onc(-c2ccccc2Cl)c1C(=O)N[C@@H]1C(=O)N2[C@@H]1SC(C)(C)[C@@H]2C(=O)O | 15.48

Pending molecule:
Query block: Look at this molecule and give its reported LEUKOCYTE COUNT. CN(C)CCCN1c2ccccc2Sc2ccc(Cl)cc21
Result block: 10.5
